test_system: T1, human PD-L1-Fc (R&D Systems) chimeric protein (human, UniProt Q9NZQ7 19-239)
T1 construct: Bought reagent; also called rhPD-L1-Fc; huPD-L1; Fc part of the bought chimera not given, not described
T1 sequence (Q9NZQ7 19-239, change not shown): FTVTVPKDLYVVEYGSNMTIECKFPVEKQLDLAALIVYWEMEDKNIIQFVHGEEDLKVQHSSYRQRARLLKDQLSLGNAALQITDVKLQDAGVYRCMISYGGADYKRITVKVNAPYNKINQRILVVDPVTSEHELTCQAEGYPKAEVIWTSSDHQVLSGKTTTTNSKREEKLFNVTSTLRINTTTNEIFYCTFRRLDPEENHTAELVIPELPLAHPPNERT
protocol_description: binding ELISA on coated human PD-L1 Fc ('Anti-PD-L1 ELISA')
value_kind: EC50 (read off the curve)

Check out these entries, answers already filled in.
AVA04-251 XT14-800 (designed binder, IRDye 800CW conjugated with maleimide chemistry (C-terminal cysteine construct)) MIPRGLSEAKPATPEIQEIVDKVKPQLEEKTNETYGKLEAVQYKTQVLAREGRQDWVLSTNYYIKVRAGDNKYMHLKVFNGPWVPFPHQQLADRVLTGYQVDKNKDDELTGFAEAAAKEAAAKEAAAKEAAAKEAAAKEAAAKMIPRGLSEAKPATPEIQEIVDKVKPQLEEKTNETYGKLEAVQYKTQVLAREGRQDWVLSTNYYIKVRAGDNKYMHLKVFNGPWVPFPHQQLADRVLTGYQVDKNKDDELTGFAEAAAKEAAAKEAAAKEAAAKEAAAKEAAAKMIPRGLSEAKPATPEIQEIVDKVKPQLEEKTNETYGKLEAVQYKTQVLANFFQRRWPGSTNYYIKVRAGDNKYMHLKVFNGPWKFRNTDRGADRVLTGYQVDKNKDDELTGFC: ~0.02 nM
AVA04-251 BH-Cys (designed binder) single chain: MIPRGLSEAKPATPEIQEIVDKVKPQLEEKTNETYGKLEAVQYKTQVLAREGRQDWVLSTNYYIKVRAGDNKYMHLKVFNGPWVPFPHQQLADRVLTGYQVDKNKDDELTGFAEAAAKEAAAKEAAAKEAAAKEAAAKEAAAKMIPRGLSEAKPATPEIQEIVDKVKPQLEEKTNETYGKLEAVQYKTQVLAREGRQDWVLSTNYYIKVRAGDNKYMHLKVFNGPWVPFPHQQLADRVLTGYQVDKNKDDELTGFC: ~0.04 nM

// query Suppose we examine the binder AVA04-251 BH-800 (designed binder, IRDye 800CW conjugated with maleimide chemistry (C-terminal cysteine construct), E. coli product) MIPRGLSEAKPATPEIQEIVDKVKPQLEEKTNETYGKLEAVQYKTQVLAREGRQDWVLSTNYYIKVRAGDNKYMHLKVFNGPWVPFPHQQLADRVLTGYQVDKNKDDELTGFAEAAAKEAAAKEAAAKEAAAKEAAAKEAAAKMIPRGLSEAKPATPEIQEIVDKVKPQLEEKTNETYGKLEAVQYKTQVLAREGRQDWVLSTNYYIKVRAGDNKYMHLKVFNGPWVPFPHQQLADRVLTGYQVDKNKDDELTGFC ; what EC50 (read off the curve) value has been reported?
// result ~0.04 nM
